As shown below, each of these molecules has a reported activation at 1 µM value.
Target: PKR R532W (Homo sapiens, UniProt P30613, R532W)
Sequence (P30613 whole entry R532W): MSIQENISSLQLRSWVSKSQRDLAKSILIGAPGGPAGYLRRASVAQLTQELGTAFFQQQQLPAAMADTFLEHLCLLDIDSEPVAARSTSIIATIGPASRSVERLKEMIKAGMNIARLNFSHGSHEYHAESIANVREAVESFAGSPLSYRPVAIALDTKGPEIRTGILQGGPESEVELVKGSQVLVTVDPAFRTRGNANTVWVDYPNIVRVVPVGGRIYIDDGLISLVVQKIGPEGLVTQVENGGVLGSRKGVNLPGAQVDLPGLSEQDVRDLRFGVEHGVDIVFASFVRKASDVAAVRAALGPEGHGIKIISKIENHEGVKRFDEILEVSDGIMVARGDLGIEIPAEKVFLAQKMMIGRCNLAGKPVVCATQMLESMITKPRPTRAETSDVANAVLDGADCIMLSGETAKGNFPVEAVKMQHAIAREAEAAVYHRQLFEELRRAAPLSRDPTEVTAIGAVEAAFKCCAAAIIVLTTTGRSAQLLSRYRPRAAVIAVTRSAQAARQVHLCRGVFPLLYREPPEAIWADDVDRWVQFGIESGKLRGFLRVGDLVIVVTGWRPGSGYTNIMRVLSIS
Assay: PKR R532W Single Point Percent Activation Assay
Format: biochemical
Settings: read-out: Act, % 532W

Past entries and their recorded results:
molecule | test target | reported endpoint | result
C[C@H]1CN(CC2CCCC2)CCN1C(=O)c1ccc(NS(=O)(=O)c2cccc3cccnc23)cc1Cl | PKR R532W (Homo sapiens, UniProt P30613, R532W) | activation at 1 µM | 1 to 100%
CC1CN(CC2CCOC2)CC(C)N1C(=O)c1ccc(NS(=O)(=O)c2cccc3cccnc23)cc1 (centres unmarked) | PKR R532W (Homo sapiens, UniProt P30613, R532W) | activation at 1 µM | 1 to 100%
CCOC(=O)N1[C@H](C)CN(C(=O)c2ccc(NS(=O)(=O)c3cccc4cccnc34)cc2)C[C@@H]1C | PKR R532W (Homo sapiens, UniProt P30613, R532W) | activation at 1 µM | 101 to 500%

I am curious: what activation at 1 µM value has been reported for CC(c1ccc(F)c(F)c1F)N1CCN(C(=O)c2ccc(NS(=O)(=O)c3cccc4cccnc34)cc2)[C@H](C)C1 (some centres unmarked) ? 1 to 100%

I am curious: what activation at 1 µM value has been reported for `O=C(c1ccc(NS(=O)(=O)c2cccc3cccnc23)cc1)N1C2CCC1CN(CC1CC1)C2` ? 101 to 500%

I am curious: what activation at 1 µM value has been reported for `C[C@@H]1CN(C[C@@H]2CCCO2)CCN1C(=O)c1ccc(NS(=O)(=O)c2cccc3cccnc23)cc1` ? 101 to 500%

I am curious: what activation at 1 µM value has been reported for CC1CN(Cc2c(F)cc(F)cc2F)CC(C)N1C(=O)c1ccc(NS(=O)(=O)c2cccc3cccnc23)cc1 (centres unmarked) ? 101 to 500%

I am curious: what activation at 1 µM value has been reported for CC1CN(Cc2ccc(F)cc2)CC(C)N1C(=O)c1ccc(NS(=O)(=O)c2cccc3cccnc23)cc1 (centres unmarked) ? 101 to 500%

I am curious: what activation at 1 µM value has been reported for `C[C@H]1CN(Cc2ccc(F)cc2)CCN1C(=O)c1ccc(NS(=O)(=O)c2cccc3cccnc23)cc1Cl` ? 101 to 500%

I am curious: what activation at 1 µM value has been reported for CC1CN(CC2CC2)CC(C)N1C(=O)c1ccc(NS(=O)(=O)c2cccc3cccnc23)cc1 (centres unmarked) ? 101 to 500%

I am curious: what activation at 1 µM value has been reported for `C[C@H]1CN(CC2CCCCC2)CCN1C(=O)c1ccc(NS(=O)(=O)c2cccc3cccnc23)cc1` ? 101 to 500%

I am curious: what activation at 1 µM value has been reported for `C[C@H]1CN(CC2CC2)CCN1C(=O)c1ccc(NS(=O)(=O)c2cccc3cccnc23)cc1Cl` ? 1 to 100%

I am curious: what activation at 1 µM value has been reported for `O=C(c1ccc(NS(=O)(=O)c2cccc3cccnc23)cc1)N1CC2CCC(C1)N2Cc1ccccc1` ? 101 to 500%

I am curious: what activation at 1 µM value has been reported for CC(c1ccc(F)cc1Cl)N1CCN(C(=O)c2ccc(NS(=O)(=O)c3cccc4cccnc34)cc2)[C@H](C)C1 (some centres unmarked) ? 101 to 500%

I am curious: what activation at 1 µM value has been reported for `C[C@H]1CN(Cc2cc(F)c(F)c(F)c2)CCN1C(=O)c1ccc(NS(=O)(=O)c2cccc3cccnc23)cc1` ? 1 to 100%

I am curious: what activation at 1 µM value has been reported for `C[C@@H]1CN(C(=O)c2ccc(NS(=O)(=O)c3cccc4cccnc34)cc2)CCN1Cc1ccccc1` ? 101 to 500%

I am curious: what activation at 1 µM value has been reported for CC(c1cc(F)cc(F)c1)N1CCN(C(=O)c2ccc(NS(=O)(=O)c3cccc4cccnc34)cc2)[C@H](C)C1 (some centres unmarked) ? 101 to 500%
